molecular target: human vanin-1 (Homo sapiens (Human), UniProt O95497); assay: Human Vanin-1 Enzyme Assay 3; format: biochemical; conditions: 2 nM human vanin-1, 10 uM substrate, 15 min
Sequence (O95497 22-491): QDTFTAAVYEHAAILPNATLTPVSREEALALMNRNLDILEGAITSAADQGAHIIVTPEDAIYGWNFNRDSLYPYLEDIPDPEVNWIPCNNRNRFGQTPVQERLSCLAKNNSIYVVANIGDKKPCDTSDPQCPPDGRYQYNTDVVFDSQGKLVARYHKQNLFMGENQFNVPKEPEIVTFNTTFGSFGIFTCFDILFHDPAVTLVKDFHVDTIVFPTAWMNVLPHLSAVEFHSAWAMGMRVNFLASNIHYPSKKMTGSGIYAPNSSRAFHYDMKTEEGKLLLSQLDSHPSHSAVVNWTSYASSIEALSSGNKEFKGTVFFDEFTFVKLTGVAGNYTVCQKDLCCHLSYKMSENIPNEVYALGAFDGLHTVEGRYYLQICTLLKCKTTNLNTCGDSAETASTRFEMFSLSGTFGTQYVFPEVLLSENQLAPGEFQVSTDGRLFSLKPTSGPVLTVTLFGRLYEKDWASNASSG
pIC50: −log10 of the molar value.
Readout name: pIC50

Below, each entry is followed by its recorded pIC50 result.
O=C(c1cnc(NCc2ccccc2)nc1)c1cccc(C(F)(F)F)c1
7.69
N#Cc1cccc(C(=O)c2cnc(NC3(c4ccccc4)CC3)nc2)c1
7.92
N#Cc1cccc(C(=O)c2cnc(NCc3ccccc3)nc2)c1
7.28
N#Cc1cccc(CNc2ncc(C(=O)c3cccc(Cl)c3)cn2)c1
7.20

P = COc1ccc(CNc2ncc(C(=O)c3ccc(OC)cc3)cn2)cc1
Q = O=C(c1ccc(C(F)(F)F)cc1)c1cnc(NCc2ccc(F)cc2)nc1
R = N#Cc1cccc(CNc2ncc(C(=O)c3ccccc3)cn2)c1
S = COc1cccc(C(=O)c2cnc(NCc3ccccc3)nc2)c1
Qu. Sequence the entries by pIC50, beginning with the highest number. List the labels, following the order given in the request.
Ans. Q, S, R, P

a = O=C(c1cnc(NCc2cccnc2)nc1)c1ccc2c(c1)OCCO2
b = O=C(c1cnc(NCc2ccccc2)nc1)c1ccc2c(c1)OCCO2
Qu. I'd appreciate it if you could identify which of a and b has the greater pIC50. Output the label that corresponds to your choice.
Ans. a

P = O=C(c1cnc(NCc2ccccn2)nc1)c1ccc(F)c(C(F)(F)F)c1
Q = N#Cc1ccc(CNc2ncc(C(=O)c3ccc(C(F)(F)F)cc3)cn2)cc1
R = N#Cc1cccc(C(=O)c2cnc(NCc3cccnn3)nc2)c1
S = O=C(c1cccc(Cl)c1)c1ccc(NCc2ccccc2)nn1
T = O=C(c1cnc(NCc2ccncc2)nc1)c1ccc(F)c(C(F)(F)F)c1
Qu. Order the entries by their reported pIC50, beginning at the minimum. List the labels, following the order given in the request.
Ans. S, Q, R, T, P
(S: 6.12, Q: 6.69, R: 7.01, T: 7.26, P: 7.52)

1 = O=C(c1cnc(NCc2ccccc2)nc1)c1ccc(F)c(C(F)(F)F)c1
2 = O=C(c1ccccc1)c1cnc(NCc2cccnn2)nc1
Qu. I'd appreciate it if you could identify which of 1 and 2 has the greater pIC50. Output the label that corresponds to your choice.
Ans. 1
(1: 7.07, 2: 6.09)

P = CC(C)(Nc1ncc(C(=O)c2ccc3c(c2)OCCO3)cn1)c1ccccc1
Q = N#Cc1ccc(CNc2ncc(C(=O)c3cc(F)cc(C(F)(F)F)c3)cn2)cc1
Qu. I'd appreciate it if you could identify which of P and Q has the greater pIC50. Output the label that corresponds to your choice.
Ans. P
(P: 6.65, Q: 6.01)

1 = O=C(c1cnc(NCc2ccc(Cl)cc2F)nc1)c1cccc(C(F)(F)F)c1
2 = CC(C)(Nc1ncc(C(=O)c2cccc(Cl)c2)cn1)c1ccccc1
3 = N#Cc1cccc(C(=O)c2cnc(NC3(c4cccnc4)CC3)nc2)c1
4 = O=C(O)c1ccc(CNc2ncc(C(=O)c3ccc(F)c(C(F)(F)F)c3)cn2)cc1
Qu. Order the entries by their reported pIC50, beginning at the minimum. List the labels, following the order given in the request.
Ans. 4, 1, 2, 3

1 = O=C(c1cnc(NCc2ccncc2)nc1)c1cccc(C(F)(F)F)c1
2 = CC(C)(Nc1ncc(C(=O)c2cccc(C(F)(F)F)c2)cn1)c1ccccc1
Qu. // task: argmin of pIC50 over [ 1 , 2 ] Output the label that corresponds to your choice.
Ans. 1
(1: 7.44, 2: 8.04)

I = N#Cc1ccc(C(=O)c2cnc(NCc3ccc(F)cc3)nc2)cc1
II = COc1ccc(C(=O)c2cnc(NCc3ccc(C(N)=O)cc3)nc2)cc1
III = O=C(c1cnc(NC2(c3cccnc3)CC2)nc1)c1cccc(C(F)(F)F)c1
IV = NC(=O)c1cccc(CNc2ncc(C(=O)c3cccc(Cl)c3)cn2)c1
V = CC(C)(Nc1ncc(C(=O)c2cccc(C#N)c2)cn1)c1ccccc1
Qu. Order the entries by their reported pIC50, beginning at the minimum. List the labels, following the order given in the request.
Ans. I, IV, II, V, III
(I: 6.16, IV: 6.40, II: 6.72, V: 7.12, III: 7.62)

###

molecular target: human vanin-1 (Homo sapiens (Human), UniProt O95497); experiment: Human Vanin-1 Enzyme Assay 2; type: biochemical; conditions: 1 nM human vanin-1, 10 uM substrate, 45 min
pIC50: −log10 of the molar value.
Readout name: pIC50

Cn1ncc2cc(C(=O)c3cnc(NCc4cncnc4)nc3)ccc21
5.51
N#Cc1cccc(CNc2ncc(C(=O)c3ccccc3)cn2)c1
6.48
COc1ccc(C(=O)c2cnc(NCc3ccc(C(N)=O)cc3)nc2)cc1
6.20
COc1ccc(C(=O)c2cnc(NC(C)c3cncnc3)nc2)cc1 (stereo not drawn)
6.36
CC(Nc1ncc(C(=O)c2cccc(C#N)c2)cn1)c1ccc(C(N)=O)cc1 (single isomer, unassigned; (-)) [Example 9]
7.38

a = NC(=O)c1ccc(CNc2ncc(C(=O)c3ccc(F)c(C(F)(F)F)c3)cn2)cc1
b = N#Cc1cccc(C(=O)c2cnc(NC3(c4cnccn4)CC3)nc2)c1
c = Cn1cc(C(=O)c2cnc(NCc3cccnc3)nc2)cn1
d = CS(=O)(=O)c1cccc(C(=O)c2cnc(NCc3cncnc3)nc2)c1
Qu. Order the entries by their reported pIC50, beginning at the minimum. List the labels, following the order given in the request.
Ans. c, a, d, b

a = N#Cc1cccc(C(=O)c2cnc(NCc3ccc(F)cc3F)nc2)c1
b = N#Cc1cccc(C(=O)c2cnc(NC3(c4cncnc4)CC3)nc2)c1
c = O=C(c1ccccc1)c1cnc(NCc2cnccn2)nc1
d = O=C(c1cnc(NCc2cccnc2)nc1)c1cccs1
Qu. Order the entries by their reported pIC50, beginning at the minimum. List the labels, following the order given in the request.
Ans. c, d, a, b
(c: 6.25, d: 6.91, a: 7.45, b: 8.15)

###

target: human vanin-1 (Homo sapiens (Human)); experiment: Human Vanin-1 Enzyme Assay 1; format: biochemical; conditions: 25 pM human vanin-1, 50 uM pantetheine 7-amino-4-trifluoromethylcoumarin, 30 min preincubation, 60 min
Readout name: IC50 (nM)

Below, each entry is followed by its recorded IC50 result.
O=C(c1cnc(NCc2ccccc2)nc1)c1ccc(F)c(C(F)(F)F)c1
1050
O=C(c1cnc(NCc2cccnc2)nc1)c1ccccc1F
329
O=C(c1cccc(C(F)(F)F)c1)c1ccc(NCc2ccccc2)nn1
7430
N#Cc1cc(C(=O)c2cnc(NCc3cncnc3)nc2)ccc1Cl
259
N#Cc1cccc(C(=O)c2cnc(NCc3ccc(C(N)=O)nc3)nc2)c1
146
O=C(c1ccccc1)c1cnc(NCc2cncnc2)nc1
143

A = NC(=O)c1ccc(CNc2ncc(C(=O)c3cc(F)cc(C(F)(F)F)c3)cn2)cc1
B = COc1cccc(C(=O)c2cnc(NC(C)c3cncnc3)nc2)c1 (stereo not drawn)
C = O=C(c1ccccc1)c1cnc(NC2(c3cccnc3)CC2)nc1
Qu. Order the entries by their reported IC50, beginning at the minimum. List the labels, following the order given in the request.
Ans. B, A, C

###

target: human vanin-1 (Homo sapiens (Human)); experiment: Human Vanin-1 Enzyme Assay 3; format: biochemical; conditions: 2 nM human vanin-1, 10 uM substrate, 15 min
pIC50: −log10 of the molar value.
Readout name: pIC50

N#Cc1cccc(C(=O)c2cnc(NCc3ccc(C(N)=O)nc3)nc2)c1
6.76

I = NC(=O)c1ccc(CNc2ncc(C(=O)c3cccc(C(F)(F)F)c3)cn2)cc1
II = NC(=O)c1ccc(CNc2ncc(C(=O)c3ccccc3)cn2)cc1
Qu. I'd appreciate it if you could identify which of I and II has the greater pIC50. Output the label that corresponds to your choice.
Ans. I

###

target: human vanin-1 (Homo sapiens (Human), UniProt O95497); experiment: Human Vanin-1 Enzyme Assay 1; type: biochemical; settings: 25 pM human vanin-1, 50 uM pantetheine 7-amino-4-trifluoromethylcoumarin, 30 min preincubation, 60 min
Readout name: IC50 (nM)

Below, each entry is followed by its recorded IC50 result.
N#Cc1cccc(CNc2ncc(C(=O)c3cccc(C(F)(F)F)c3)cn2)c1 [Example 62]
150
O=C(c1ccccc1)c1cnc(NCc2ccccc2F)nc1 [Example 101]
804
O=C(c1cnc(NCc2ccccc2)nc1)c1cccc(Cl)c1 [Example 24]
1240
O=C(c1cccc(Cl)c1)c1ccc(NCc2ccccc2)nn1 [Example 86]
14700
O=C(c1cnc(NC2(c3cncnc3)CC2)nc1)c1cccc(C(F)(F)F)c1 [Example 16]
1.7
N#Cc1cccc(C(=O)c2cnc(NCc3cccnc3)nc2)c1 [Example 118]
4

P = CS(=O)(=O)c1cccc(C(=O)c2cnc(NCc3cncnc3)nc2)c1 [Example 20]
Q = N#Cc1cccc(C(=O)c2cnc(NCc3ccc(C(N)=O)cc3)nc2)c1 [Example 68]
R = CN1CCC(CNc2ncc(C(=O)c3cccc(C#N)c3)cn2)CC1 [Example 164]
Qu. Order the entries by their reported IC50, beginning at the minimum. List the labels, following the order given in the request.
Ans. P, Q, R
(P: 9.4 nM, Q: 107 nM, R: 1810 nM)
